- experimental-system: T1, rat MuSK (rat, UniProt Q62838 22-494, limits assumed)
- T1 construct: Coated on Biacore chip (200RU) or ELISA plate
- T1 sequence (looked up): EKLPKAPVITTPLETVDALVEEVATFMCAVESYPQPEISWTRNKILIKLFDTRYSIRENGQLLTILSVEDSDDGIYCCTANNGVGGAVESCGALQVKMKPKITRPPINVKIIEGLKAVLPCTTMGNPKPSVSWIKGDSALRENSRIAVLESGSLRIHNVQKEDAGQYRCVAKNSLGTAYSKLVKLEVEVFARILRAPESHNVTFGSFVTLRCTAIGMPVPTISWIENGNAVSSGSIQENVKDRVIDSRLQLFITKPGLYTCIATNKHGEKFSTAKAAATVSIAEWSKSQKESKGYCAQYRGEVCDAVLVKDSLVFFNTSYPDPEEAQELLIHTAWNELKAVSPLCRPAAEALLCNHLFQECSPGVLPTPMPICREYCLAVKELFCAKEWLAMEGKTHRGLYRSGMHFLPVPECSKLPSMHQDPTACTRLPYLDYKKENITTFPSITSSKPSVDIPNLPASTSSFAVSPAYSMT
- assay-summary: Biacore, MuSK on chip, association pH 7.4, dissociation pH 5.5
So I've got a bunch of binders here, and I need their koff values.
Form field: result (number plus unit)

>>> endpoint_value("3B2g2m2 (antibody, human IgG1, V domains shown, human IgG1-LALA backbone; produced in HEK293 cells) VH: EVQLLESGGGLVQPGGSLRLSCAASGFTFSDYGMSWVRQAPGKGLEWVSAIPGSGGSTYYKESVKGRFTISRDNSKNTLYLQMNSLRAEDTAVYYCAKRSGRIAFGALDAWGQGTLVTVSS VL: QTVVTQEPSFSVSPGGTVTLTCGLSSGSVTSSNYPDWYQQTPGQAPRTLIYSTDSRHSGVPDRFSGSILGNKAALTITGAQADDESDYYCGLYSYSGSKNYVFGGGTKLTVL")
"0.0973 s⁻¹"

For this binder ( 3B2 (antibody, V domains shown, human IgG1 with the LALA mutations (L234A, L235A); produced in HEK293 cells; also called 3B2 mAb; parental 3B2 Ab) VH: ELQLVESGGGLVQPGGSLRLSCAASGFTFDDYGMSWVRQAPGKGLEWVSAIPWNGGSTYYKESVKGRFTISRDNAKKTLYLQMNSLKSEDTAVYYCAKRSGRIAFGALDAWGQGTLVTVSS VL: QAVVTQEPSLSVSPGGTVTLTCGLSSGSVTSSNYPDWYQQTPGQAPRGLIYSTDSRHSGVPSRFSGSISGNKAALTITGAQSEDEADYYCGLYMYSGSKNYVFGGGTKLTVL ), measured koff is 0.0062 s⁻¹

Every entry's value here was drawn from patent US20230151091A1.
